Values from paper PMC6941357

Give measured pKi for each item. Keep answers brief.
- tgt: CYP2D6 (Homo sapiens, UniProt P10635)
- Sequence (P10635 whole entry): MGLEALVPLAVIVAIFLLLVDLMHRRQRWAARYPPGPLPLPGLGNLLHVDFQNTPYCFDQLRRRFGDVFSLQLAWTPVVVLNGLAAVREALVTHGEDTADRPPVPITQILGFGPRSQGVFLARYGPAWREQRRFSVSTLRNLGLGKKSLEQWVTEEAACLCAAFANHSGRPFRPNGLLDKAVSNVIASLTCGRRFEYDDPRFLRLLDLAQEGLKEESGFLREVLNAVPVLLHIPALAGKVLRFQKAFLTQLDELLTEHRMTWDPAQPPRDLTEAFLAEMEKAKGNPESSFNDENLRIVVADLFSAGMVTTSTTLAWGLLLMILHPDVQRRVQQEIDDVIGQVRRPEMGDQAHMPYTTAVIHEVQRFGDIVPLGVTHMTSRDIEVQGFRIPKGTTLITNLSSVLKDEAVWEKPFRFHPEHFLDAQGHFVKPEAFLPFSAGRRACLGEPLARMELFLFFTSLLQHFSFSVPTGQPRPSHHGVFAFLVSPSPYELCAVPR
- protocol.description: Cytochrome P450 inhibition in human liver microsomes
Field pKi (float): negative decimal logarithm of the concentration in molar.

*Q* Please give the measured pKi for this compound: N#Cc1cc(NC(=O)[C@H]2c3ccccc3C(=O)N(CC(F)(F)F)[C@@H]2c2cccnc2)ccc1F
*A* 5.02

*Q* Please give the measured pKi for this compound: CC1(C)N=C(N)N=C(N)N1c1ccc(Cl)cc1
*A* 5.43

*Q* Please give the measured pKi for this compound: [H]/N=C(\N/C(=N/[H])Nc1ccc(Cl)cc1)NC(C)C
*A* 5.66

*Q* Please give the measured pKi for this compound: CCCCN(CCCC)CC(O)c1cc(Cl)cc2c1-c1ccc(Cl)cc1/C2=C/c1ccc(Cl)cc1 (stereo not drawn)
*A* 5.74

*Q* Please give the measured pKi for this compound: CCCCN(CCCC)CCC(O)c1cc2c(Cl)cc(Cl)cc2c2cc(C(F)(F)F)ccc12 (stereo not drawn)
*A* 6.72

*Q* Please give the measured pKi for this compound: C[C@H]1Cc2c([nH]c3cc(Cl)c(F)cc23)[C@@]2(N1)C(=O)Nc1ccc(Cl)cc12
*A* 5.43

*Q* Please give the measured pKi for this compound: COc1ccc2nc3cc(Cl)ccc3c(Nc3cc(CN4CCCC4)c(O)c(CN4CCCC4)c3)c2n1
*A* 6.12

*Q* Please give the measured pKi for this compound: CC(C)NC(=N)NC(=N)Nc1ccc(Cl)c(Cl)c1
*A* 6.06

*Q* Please give the measured pKi for this compound: CCNCc1cc(Nc2ccnc3cc(Cl)ccc23)ccc1O
*A* 5.80

---

- protocol.description: Plasma protein binding via ultracentrifugation (UC)
- Type: in vitro ADME, human
- test.context: human, pooled plasma, pH 7.4; ultracentrifugation; instability evident, estimate only; read-out: Fraction unbound, human plasma
quantity: fraction unbound at […]
The answer should be a number; do not append a unit.

*Q* Please give the measured fraction unbound at […] for this compound: C[C@H]1[C@H](OC(=O)CCC(=O)O)O[C@@H]2O[C@@]3(C)CC[C@H]4[C@H](C)CC[C@@H]1[C@@]24OO3 [Artesunate]
*A* 0.27

*Q* Please give the measured fraction unbound at […] for this compound: C[C@H]1[C@@H](O)O[C@@H]2O[C@@]3(C)CC[C@H]4[C@H](C)CC[C@@H]1[C@@]24OO3 [Dihydroartemisinin]
*A* 0.21

---

- protocol.description: Solubility limited absorbable dose (SLAD) calculation with predicted human jejunal Peff
- test.context: FaSSIF
quantity: log10 solubility (log10 of the value in µg/mL)
Use the decimal logarithm of solubility (µg/mL).

*Q* Please give the measured log10 solubility for this compound: COc1cc(C)c2c(Oc3cccc(C(F)(F)F)c3)c(OC)cc(NC(C)CCCN)c2n1 (centres unmarked)
*A* 1.20

*Q* Please give the measured log10 solubility for this compound: C[C@H]1[C@H](OC(=O)CCC(=O)O)O[C@@H]2O[C@@]3(C)CC[C@H]4[C@H](C)CC[C@@H]1[C@@]24OO3 [Artesunate]
*A* 3.23

*Q* Please give the measured log10 solubility for this compound: CC(C)NC(=N)NC(=N)Nc1ccc(Cl)c(Cl)c1
*A* 3.04

*Q* Please give the measured log10 solubility for this compound: C[C@H]1Cc2c([nH]c3cc(Cl)c(F)cc23)[C@@]2(N1)C(=O)Nc1ccc(Cl)cc12
*A* 2.05

*Q* Please give the measured log10 solubility for this compound: CO[C@H]1O[C@@H]2O[C@@]3(C)CC[C@H]4[C@H](C)CC[C@@H]([C@H]1C)[C@@]24OO3
*A* 2.22

*Q* Please give the measured log10 solubility for this compound: O=C1C(O)=C([C@H]2CC[C@H](c3ccc(Cl)cc3)CC2)C(=O)c2ccccc21
*A* 0.26
